PROTOCOL TEXT: in vivo
RECORDED CONDITIONS: mouse, po
Property: LD50; scope: individual compounds
MEASURED QUANTITY: LD50 (mg/kg)

>>> numeric_value("Cc1nc2n(c(=O)c1CCN1CCC(c3noc4cc(F)ccc34)CC1)CCCC2")
83.2
>>> numeric_value("O=C1CCc2ccc(OCCCCN3CCN(c4cccc(Cl)c4Cl)CC3)cc2N1")
1400
>>> numeric_value("O=C1Cc2cc(CCN3CCN(c4nsc5ccccc45)CC3)c(Cl)cc2N1")
1600

---

SYSTEM: dopamine D2 receptor (Homo sapiens)
Sequence (P14416 whole entry): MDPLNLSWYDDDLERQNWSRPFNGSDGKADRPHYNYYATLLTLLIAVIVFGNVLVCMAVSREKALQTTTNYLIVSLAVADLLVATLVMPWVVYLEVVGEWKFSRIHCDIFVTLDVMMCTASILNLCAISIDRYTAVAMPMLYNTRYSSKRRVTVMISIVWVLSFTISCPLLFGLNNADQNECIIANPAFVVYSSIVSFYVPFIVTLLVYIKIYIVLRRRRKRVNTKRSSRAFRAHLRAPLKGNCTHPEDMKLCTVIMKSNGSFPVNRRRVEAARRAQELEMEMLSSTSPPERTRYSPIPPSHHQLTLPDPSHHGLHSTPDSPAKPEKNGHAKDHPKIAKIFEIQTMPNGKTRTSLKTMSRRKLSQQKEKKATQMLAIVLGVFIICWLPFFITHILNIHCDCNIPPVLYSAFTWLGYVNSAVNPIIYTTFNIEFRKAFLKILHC
PROTOCOL TEXT: Dopamine D2 receptor-binding assay ([3H]Spiperone displacement)
RECORDED CONDITIONS: inhibition of binding of 0.4 nM [3H]Spiperone, CHO-hD2L film product, room temperature 120 minutes; read-out: IC50 (affinity to D2 receptor)
Structures can show the parent of a compound that is named as a salt.
MEASURED QUANTITY: IC50 (nM)

>>> numeric_value("COc1cccc2c(N3CCN(CCCCOc4ccc5c(c4)NC(=O)CC5)CC3)nsc12 [III-5, hydrochloride]")
15.8
>>> numeric_value("COc1ccc2onc(N3CCN(CCCCOc4ccc5c(c4)NC(=O)CC5)CC3)c2c1 [I-9, hydrochloride]")
25
>>> numeric_value("O=C1CCc2ccc(OCCCCN3CCC(c4noc5ccc(F)cc45)CC3)cc2N1 [II-7, hydrochloride]")
12.6
>>> numeric_value("O=C1CCc2ccc(OCCCCN3CCN(c4noc5ccccc45)CC3)cc2N1 [I-3, hydrochloride]")
99.3
>>> numeric_value("O=C1Cc2ccc(OCCCCN3CCC(c4noc5cc(F)ccc45)CC3)cc2N1")
38.9
>>> numeric_value("COc1ccc2onc(C3CCN(CCCCOc4ccc5c(c4)NC(=O)CC5)CC3)c2c1 [II-6, hydrochloride]")
277
>>> numeric_value("COc1cc2onc(C3CCN(CCCCOc4ccc5c(c4)NC(=O)CC5)CC3)c2cc1OC [II-8, hydrochloride]")
23.8
>>> numeric_value("O=C1CCc2ccc(OCCCN3CCC(c4noc5cc(F)ccc45)CC3)cc2N1 [II-2, hydrochloride]")
16.2
>>> numeric_value("COc1ccc2snc(N3CCN(CCCCOc4ccc5c(c4)NC(=O)CC5)CC3)c2c1 [III-6, hydrochloride]")
15
>>> numeric_value("O=C1CCc2ccc(OCCCCN3CCN(c4nsc5ccccc45)CC3)cc2N1 [III-1, hydrochloride]")
5.23
>>> numeric_value("O=C1CCc2ccc(OCCCCN3CCC(c4noc5cc(Cl)ccc45)CC3)cc2N1 [II-5, hydrochloride]")
15.8
>>> numeric_value("O=C1CCc2ccc(OCCCCN3CCC(c4noc5ccccc45)CC3)cc2N1 [II-4, hydrochloride]")
23.6
>>> numeric_value("O=C1CCc2ccc(OCCCCN3CCC(c4noc5ccc(O)cc45)CC3)cc2N1 [II-9, hydrochloride]")
78.8
>>> numeric_value("COc1ccc2c(N3CCN(CCCCOc4ccc5c(c4)NC(=O)CC5)CC3)noc2c1Br [I-12, hydrochloride]")
10.2
>>> numeric_value("O=C1CCc2ccc(OCCCCCN3CCC(c4noc5cc(F)ccc45)CC3)cc2N1 [II-3, hydrochloride]")
202
>>> numeric_value("O=C1CCc2ccc(OCCCCN3CCN(c4noc5cc(F)ccc45)CC3)cc2N1 [I-4, hydrochloride]")
10.2
